These entries and their values trace back to patent US20260166139A1.

Target: T1, CTLA4 antigen on the surface of 293F-CTLA4 host cells (UniProt P16410 36-223, limits assumed)
T1 construct: whole, on cells
T1 sequence (looked up): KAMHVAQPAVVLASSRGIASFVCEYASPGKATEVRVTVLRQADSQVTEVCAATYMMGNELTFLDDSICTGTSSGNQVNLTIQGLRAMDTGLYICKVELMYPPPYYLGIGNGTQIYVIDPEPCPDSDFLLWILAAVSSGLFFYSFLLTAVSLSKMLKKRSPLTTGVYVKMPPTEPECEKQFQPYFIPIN
Test: flow cytometry, 293F-CTLA4 cells; antibody 1 nM
readoutType: fluorescence intensity
Give the figure only, with no unit attached.

[
  {
    "binder": "8D2 recombinant antibody, 8D2(Re) (antibody, V domains shown) VH: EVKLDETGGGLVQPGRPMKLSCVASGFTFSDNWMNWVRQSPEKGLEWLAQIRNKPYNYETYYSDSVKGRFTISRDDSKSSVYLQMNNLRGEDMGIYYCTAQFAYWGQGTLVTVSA VL: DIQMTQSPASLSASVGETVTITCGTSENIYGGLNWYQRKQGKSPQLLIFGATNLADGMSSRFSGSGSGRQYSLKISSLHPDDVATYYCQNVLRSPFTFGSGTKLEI",
    "readoutType": "fluorescence intensity",
    "number": 321
  }
]

Record request: fluorescence intensity value, item humanized antibody 8D2H1L1 (antibody, V domains shown) VH: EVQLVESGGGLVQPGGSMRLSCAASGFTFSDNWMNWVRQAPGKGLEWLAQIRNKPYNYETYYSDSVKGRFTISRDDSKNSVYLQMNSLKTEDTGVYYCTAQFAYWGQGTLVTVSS VL: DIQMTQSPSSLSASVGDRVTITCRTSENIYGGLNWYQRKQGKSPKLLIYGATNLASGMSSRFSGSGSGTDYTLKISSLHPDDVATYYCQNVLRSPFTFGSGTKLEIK 103

Moving on to humanized antibody 8D2H3L3 (antibody, V domains shown) VH: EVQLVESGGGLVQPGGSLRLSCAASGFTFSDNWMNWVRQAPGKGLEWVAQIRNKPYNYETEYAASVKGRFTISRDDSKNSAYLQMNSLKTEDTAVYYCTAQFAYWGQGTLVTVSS VL: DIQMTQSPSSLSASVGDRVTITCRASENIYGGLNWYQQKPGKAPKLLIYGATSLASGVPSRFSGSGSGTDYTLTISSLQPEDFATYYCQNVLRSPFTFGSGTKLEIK 623

Moving on to humanized antibody 8D2H2L2 (antibody, V domains shown, also called 8D2H2L2(20150327); 8D2H2L2(20140422)) VH: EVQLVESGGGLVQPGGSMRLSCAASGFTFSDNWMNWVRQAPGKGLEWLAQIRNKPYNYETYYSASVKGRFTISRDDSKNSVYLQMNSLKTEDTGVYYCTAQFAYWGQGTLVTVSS VL: DIQMTQSPSSLSASVGDRVTITCRTSENIYGGLNWYQRKPGKSPKLLIYGATNLASGVSSRFSGSGSGTDYTLTISSLQPEDVATYYCQNVLRSPFTFGSGTKLEIK 625

Moving on to monoclonal antibody 8D2 (antibody, V domains shown, Murine antibody purified from hybridoma supernatant; also called mAb 8D2; antibody secreted by the CTLA4-8D2 hybridoma cell line LT001) VH: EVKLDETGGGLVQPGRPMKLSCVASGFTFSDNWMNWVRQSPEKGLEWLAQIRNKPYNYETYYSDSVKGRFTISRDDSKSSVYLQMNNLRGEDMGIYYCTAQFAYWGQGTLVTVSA VL: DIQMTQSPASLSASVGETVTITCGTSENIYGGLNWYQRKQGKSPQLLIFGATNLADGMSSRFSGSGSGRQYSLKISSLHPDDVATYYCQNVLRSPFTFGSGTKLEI 25.5
